Parameter: Ratio (-BP/+BP), DF-1000005. Scope: all listed entries.
Target: T1, IL-18 binding protein (IL-18BP) (UniProt O95998 31-194)
T1 sequence (looked up): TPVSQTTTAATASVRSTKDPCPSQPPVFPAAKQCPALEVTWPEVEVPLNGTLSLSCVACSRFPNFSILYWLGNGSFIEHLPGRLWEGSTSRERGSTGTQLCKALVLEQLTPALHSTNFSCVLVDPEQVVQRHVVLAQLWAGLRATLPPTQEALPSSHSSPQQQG
Test: cell-based or functional assay

Binder	Ratio (-BP/+BP), DF-1000005
IL-18 variant G3D, E6G, K53G, D54A, T63S, N91Y, R104Q (ligand) YFDKLGSKLSVIRNLNDQVLFIDQGNRPLFEDMTDSDMRDNAPRTIFIISMYGASQPRGMAVSISVKSEKISTLSSENKIISFKEMNPPDYIKDTKSDIIFFQQSVPGHDNKMQFESSSYEGYFLASEKERDLFKLILKKEDELGDRSIMFTVQNED	1.02
IL-18 variant G3L, E6Q, D54Y, S55P, T63S, N91S, R104Q (ligand) YFLKLQSKLSVIRNLNDQVLFIDQGNRPLFEDMTDSDMRDNAPRTIFIISMYKYPQPRGMAVSISVKSEKISTLSSENKIISFKEMNPPDSIKDTKSDIIFFQQSVPGHDNKMQFESSSYEGYFLASEKERDLFKLILKKEDELGDRSIMFTVQNED	2.23
IL-18 variant G3S, E6H, K53Y, D54P, S55Y, T63S, N91A, R104S (ligand) YFSKLHSKLSVIRNLNDQVLFIDQGNRPLFEDMTDSDMRDNAPRTIFIISMYYPYQPRGMAVSISVKSEKISTLSSENKIISFKEMNPPDAIKDTKSDIIFFQSSVPGHDNKMQFESSSYEGYFLASEKERDLFKLILKKEDELGDRSIMFTVQNED	1.18
